# Tested on: Klebsiella pneumoniae
# PROTOCOL TEXT: Antimicrobial activity against blaKPC-possessing Klebsiella pneumoniae isolates assessed as susceptible isolates in presence of 4 ug/ml by agar dilution method
# Assay type: functional
ENDPOINT LABEL: Activity (%)

>>> readout_number("CCN1CCN(C(=O)N[C@@H](C(=O)N[C@@H]2C(=O)N3[C@@H]2SC(C)(C)[C@@H]3C(=O)O)c2ccccc2)C(=O)C1=O")
16.7
>>> readout_number("CO/N=C(\\C(=O)N[C@@H]1C(=O)N2C(C(=O)O)=C(COC(C)=O)CS[C@H]12)c1csc(N)n1")
38.1
>>> readout_number("CO/N=C(\\C(=O)N[C@@H]1C(=O)N2C(C(=O)[O-])=C(C[N+]3(C)CCCC3)CS[C@H]12)c1csc(N)n1 [CEFEPIME]")
88.1
>>> readout_number("C[C@H]1[C@H](NC(=O)/C(=N\\OC(C)(C)C(=O)O)c2csc(N)n2)C(=O)N1S(=O)(=O)O")
14.3

All values here come from ChEMBL document CHEMBL1255415.
